Origin of the recorded values: PubChem BioAssay (NCI)

The reader will find reported TGI values listed item by item below.
# System: SW-620 colon
# test name: NCI tumour cell line growth inhibition, 48 h
test readout: TGI

1) O=C1CS(=O)(=O)C(c2cccc(Oc3ccccc3)c2)N1c1cccc(Cl)c1 (centres undefined)	> 100 µM
2) O=[N+]([O-])c1ccccc1N=Nc1c(O)[nH]c2ccc(Br)cc12	> 62.4 µM
3) CCOC(=O)N1C2C=C(C)C(ON2C(=O)c2ccccc2)C2C(C)C(=O)N21 (centres undefined)	> 100 µM
4) CC(C)[C@H]1CC[C@H]2[C@@H](CC[C@H]3[C@](C)(CN)CCC[C@]23C)C1	3.49 µM
5) CCOC(=O)C1C(c2ccc(OC)cc2)c2c([nH]n(-c3ccccc3)c2=O)CC1(O)OCC (centres undefined)	> 100 µM
6) COc1ccc2c(c1)=C(C=C1C=CN(O)C=C1)C(=O)N=2	> 67.8 µM
7) CCCCCCNC(=O)c1cc(CCc2cc(O)ccc2O)ccc1O	> 75.9 µM
8) Clc1ccc(/C=C/c2cc(N3CCOCC3)c3cc(Cl)c(Cl)cc3n2)cc1	> 100 µM
9) N#Cc1cccc(OCc2nc(N)nc(N)c2-c2ccc(Cl)c(Cl)c2)c1	> 100 µM
10) CC(=O)Nc1ccc(/C=C/C(=O)c2ccccc2)cc1	17.1 µM
11) S=C1Cc2c(-c3ccc(Cl)cc3)cc(-c3ccccc3)nc2-c2ccccc2N1	> 100 µM
12) CCOC(=O)c1c(-c2ccccc2)oc(-c2ccccc2)c1C(=O)OCC	> 100 µM
13) Nc1cc(C(=O)O)[nH]c(=O)n1	> 100 µM
14) C=CCc1cc(-c2cc(CC=C)c(O)c(CNC)c2)cc(CNC)c1O	31.7 µM

---

# System: SN12C renal
# test name: NCI tumour cell line growth inhibition, 48 h
Recorded measurements of TGI, one per entry
test readout: TGI

1. C/C(=N\NC(N)=S)c1cc(C)c(C)cc1C	> 100 µM
2. C/C=C/C1=C(Cl)C(=O)[C@@H](Cl)[C@@]1(O)C(=O)OC	7.15 µM
3. CC1OC(n2ccc(=O)[nH]c2=O)C=C(OC(=O)c2ccccc2)C1=O (stereo not drawn)	> 100 µM
4. Cn1c(-c2cccs2)cc(-c2ccccc2)c1-c1cccs1	> 100 µM
5. CCOc1ccccc1NC(=O)c1cc2ccccc2cc1O	9.24 µM
6. C/C(=C\c1ccccc1)C(=O)NCc1ccc(C(=O)NCCC(C)C)cc1	> 100 µM
7. CC(=O)N1N=C(c2ccc(Nc3nc(Nc4ccc(Cl)cc4)nc(Nc4ccc(Cl)cc4)n3)cc2)CC1c1ccc([N+](=O)[O-])cc1 (stereo not drawn)	> 100 µM
8. CCC1C(=O)OCc2c1cc1n(c2=O)Cc2cc3ccccc3nc2-1 (stereo not drawn)	> 100 µM

---

# System: M14 melanoma
# test name: NCI tumour cell line growth inhibition, 48 h
test readout: TGI

1. COc1ccc(N(CN2C(=O)CCC2C(=O)O)C(C)=O)cc1 (stereo not drawn)	> 100 µM
2. CN(C)CCN(C)CC1COC(C)(C)O1 (stereo not drawn)	> 100 µM
3. C1=Nc2ccc(cc2)N=Cc2ccc(cc2)OCc2cccc(n2)COc2ccc1cc2	> 100 µM

---

Property: TGI; scope: individual compounds
# Test system: SF-539 CNS
# test name: NCI tumour cell line growth inhibition, 48 h
test readout: TGI

1) Clc1cc2c(cc1Cl)Oc1cc(Cl)c(Cl)cc1O2	> 0.625 µM
2) O=C1NC(=O)C(CC(C(=O)C(=O)Nc2ccccc2Cl)C(=O)c2ccc3ccccc3c2)C(=O)N1 (stereo not drawn)	> 100 µM
3) CN(c1cc2ncc(=O)[nH]c2cc1NC(N)=NCc1ccc(Cl)cc1)C1CCCCC1	14.6 µM
